Measured inhibition by item
# measured_on: Solute carrier family 2, facilitated glucose transporter member 1 (Homo sapiens)
# assay_name: ST_JUDE_LEISH: Cytotoxicity at 2uM final concentration against transgenic Leishmania Mexicana promastigotes LmGLUT1 that are glucose transport deficient and complemented with the human glucose transporter GLUT1. Activity is measured by DNA content using SYBR green in vitro
# Format: functional
Output spec: scalar in %, unitless text.

Consider the following illustrative entries.
CS(=O)(=O)Nc1ccc(OCCCCCCOc2ccc(NS(C)(=O)=O)cc2)cc1 :: 1.48
COc1ccc2ccc(F)c(CCN3CCC(NCc4cc5c(cn4)OCCO5)CC3)c2n1 :: 8.37
CCN(CC)CCN(Cc1ccc(-c2ccc(C(F)(F)F)cc2)cc1)C(=O)Cn1c(CCc2cccc(F)c2F)nc(=O)c2ccc(F)cc21 :: 2.25

The recorded inhibition for entry COc1ccc(NC(=O)[C@H](Cc2ccccc2)Nc2cc(C)nc(NCc3ccccc3C)n2)cc1 equals 4.42

The recorded inhibition for entry CC(C)CN1C(=O)c2ccc(C(=O)Nc3nccs3)cc2C1=O equals 1.07

The recorded inhibition for entry O=C(N1CCN(c2cccc(C(F)(F)F)c2)CC1)C(Cl)(Cl)Cl equals 0.96

The recorded inhibition for entry CC1CN(c2ccc3[nH]cc(Sc4ccc(-c5cccs5)cc4)c3c2)CC(C)N1 (stereo unspecified) equals -0.79

The recorded inhibition for entry Cn1nc(-c2cccc(CNC3CCc4ccccc43)c2)c2cnc(NCCCN3CCCC3)nc21 (stereo unspecified) equals 29.9

The recorded inhibition for entry CCN(CC)CCCSc1ccc(-c2ccc(SCCCN(CC)CC)cc2)cc1 equals 88.5

The recorded inhibition for entry COc1ccccc1CNC(=O)C(=O)Nc1c(-c2ccccc2)[nH]c2ccccc12 equals -3.25

The recorded inhibition for entry O=C(Nc1ccc(CN2CCCCC2)cc1)c1ccc(COc2ccc([N+](=O)[O-])cc2)o1 equals 4.55

The recorded inhibition for entry O=C(/C=C/c1ccc(Cl)c(Cl)c1)NCCCCCN1CC[C@H](NC(=O)/C=C/c2ccccc2)C1 equals 0.76

The recorded inhibition for entry CS(=O)(=O)Cc1ccc(Nc2nccc(NC3CCN(c4nccc(C(F)(F)F)n4)CC3)n2)cc1 equals 2.96

The recorded inhibition for entry CC1(C)N=C(N)N=C(N)N1c1ccc(I)cc1 equals 5.79

The recorded inhibition for entry Fc1cccc(COc2ccc(Nc3ncnc4sc(C#CCNC5CCC5)cc34)cc2Cl)c1 equals 6.7

The recorded inhibition for entry CCN(CC)CCOc1ccc(C(O)(C#CC(O)(c2ccc(Br)cc2)c2ccc(OCCN(CC)CC)cc2)c2ccc(Br)cc2)cc1 (stereo unspecified) equals 4.97

The recorded inhibition for entry CCC(C)NC(=O)Nc1ccc(-c2cccc(-c3nc4cc(C(F)(F)F)ccc4[nH]3)c2)cc1 (stereo unspecified) equals 9.64

The recorded inhibition for entry Cc1ccc(NC(=O)c2ccc(N3CCN(c4ccncc4)CC3)cc2)cc1F equals 68

The recorded inhibition for entry Cc1cccc2nc(-c3ccc(-c4ccc(CNCCCNS(C)(=O)=O)cc4)s3)[nH]c12 equals 7.9

The recorded inhibition for entry O=C(C=Cc1cn(-c2ccccc2)nc1-c1cccs1)N1CCN(c2ccncc2)CC1 equals 1.81

The recorded inhibition for entry Cc1nc(C)c(-c2ccc(Oc3ccc(Cl)cc3)c(Cl)c2)c(O)c1Br equals 2.21

The recorded inhibition for entry O=C(Nc1ccc2c(c1)CCN2C1CCN(Cc2cccc(F)c2F)C1)c1ccco1 (stereo unspecified) equals 2.08

The recorded inhibition for entry CC(C)CCNC(=N)Nc1ccc(OCCCOc2ccc(NC(=N)NCCC(C)C)cc2)cc1 equals 0.62

The recorded inhibition for entry COc1ccc(Nc2nccc(-c3ccc(NC(=O)c4cc5cc(F)ccc5[nH]4)cc3)n2)cc1 equals -0.57
